FYI, the data here is from PubChem BioAssay AID1508601.

Kindly state nuclei count, normalised for each of the entries shown.
experiment: nuclear p53 accumulation, HPV+ cells – imaging, p53-positive nuclei imaging, 24 h, 48 h (AID 1508601); settings: 24/48 h, measured here: cell number at 48 h, Library stock concentration: 3.333 mM
Among all 5,700 compounds or so, about 85 (1%) were called active. The sample as a whole holds a higher share of actives than the screen did.
Answers are plain numbers, in %.

# map each compound to its nuclei count, normalised
1. Nc1ccn(C2C=C(CO)C(O)C2O)c(=O)n1 (stereo not given)
2. COc1ccc(N2C(=O)C(=Cc3ccc([N+](=O)[O-])s3)SC2=S)cc1
3. CC(=O)NC(CSC(=S)NSc1ccc(SNC(=S)SCC(NC(C)=O)C(=O)O)cc1)C(=O)O (stereo not given)
4. OC(c1cc(C(F)(F)F)nc2c(C(F)(F)F)cccc12)[C@H]1CCCCN1 (stereo not given in full)
5. O=C(O)c1ccccc1SC1=NS(=O)(=O)c2ccccc21

52.7
31.9
95.8
116
122
